{"columns": ["Molecule", "melting point"],
 "data": [
  ["Cn1cc(C(=O)NC2(Cc3ccc(Cl)cc3Cl)CC2)c(C(F)F)n1", "165 to 168 °C"],
  ["CC(Cc1ccc(Br)cc1Cl)NC(=O)c1cn(C)nc1C(F)F (stereo not shown)", "183 to 184 °C"],
  ["CC(Cc1ccc(Cl)cc1Cl)NC(=O)c1cn(C)nc1C(F)F (stereo not shown)", "157 °C"],
  ["CC(Cc1ccc(-c2ccc(Cl)cc2)cc1Cl)NC(=O)c1cn(C)nc1C(F)F (stereo not shown)", "96 to 98 °C"]
]}

Reference for the values: patent US20110207771A1
